- System: gastric mucosa
- Measurement protocol: HCl-Ethanol-Induced Ulcer Test in Rats
- Type: in vivo, rat (male SD)
- Measurement setup: dose 50 mg/kg, oral, 60 minutes before HCl-ethanol
Rule: measured % Inhibition (ulcer formation) below 80% gets MET; anything equal to or greater than 80% gets NOT MET.

Query block: Please indicate whether the reported % Inhibition (ulcer formation) of O=C(NC/C=C\COc1cc(CN2CCCCC2)ccn1)c1cn[nH]c1 [Example 13] is strictly below 80%.
Result block: NOT MET

Query block: Please indicate whether the reported % Inhibition (ulcer formation) of CC(=O)OCCSCC(=O)NC/C=C\COc1cc(CN2CCCCC2)ccn1 [Example 2] is strictly below 80%.
Result block: NOT MET

Query block: Please indicate whether the reported % Inhibition (ulcer formation) of CCC(=O)OCCSCC(=O)NC/C=C\COc1cc(CN2CCCCC2)ccn1 [Example 7] is strictly below 80%.
Result block: MET

Query block: Please indicate whether the reported % Inhibition (ulcer formation) of O=C(CSCc1ccco1)NC/C=C\COc1cc(CN2CCCCC2)ccn1 [Compound B, reference compound] is strictly below 80%.
Result block: NOT MET

Query block: Please indicate whether the reported % Inhibition (ulcer formation) of O=C(CSCCO)NCCCOc1cccc(CN2CCCCC2)c1 [Compound A, reference compound] is strictly below 80%.
Result block: MET
